// provenance: patent EP0942906B1

TEST_TARGET: farnesyl protein transferase (Homo sapiens, UniProt P49354+P49356)
MEASUREMENT_NOTES: FPT IC50, inhibition of farnesyl protein transferase, in vitro enzyme assay (procedure of WO 95/10516)
Format: biochemical
TEST_CONTEXT: ras form not stated; range stated for the listed group of compounds; read-out: FPT IC50
# IC50 listing for each entry below
MEASURED_METRIC: IC50

                                   compound  observed_value
0  O=C(CC1CCN(C(=O)Cn2cnc(-c3ccccc3)c2)CC1)N1CCC([C@H]2c3ncc(Br)cc3CCc3cc(Cl)cc(Br)c32)CC1 [Compound 20.0-B]    0.7 to 18 nM
1  O=C(CC1CCN(C(=O)CC2CCCO2)CC1)N1CCC([C@H]2c3ncc(Br)cc3CCc3cc(Cl)cc(Br)c32)CC1 (stereo partly drawn) [Compound 114.4-B]    0.7 to 18 nM
2  CCOC(=O)C[C@@H](CC(=O)N1CCC(CC(=O)N2CCC([C@H]3c4ncc(Br)cc4CCc4cc(Cl)cc(Br)c43)CC2)CC1)OC(C)=O [Compound 16.0-B]    0.7 to 18 nM

###

Items are presented alongside their recorded pIC50.
TEST_TARGET: farnesyl protein transferase (Homo sapiens, UniProt P49354+P49356)
MEASUREMENT_NOTES: FPT IC50, inhibition of farnesyl protein transferase, in vitro enzyme assay (procedure of WO 95/10516)
Assay type: biochemical
TEST_CONTEXT: H-ras; range stated for the listed group of compounds; read-out: FPT IC50 (H-ras)
pIC50: −log10 of the molar value.
MEASURED_METRIC: pIC50

                                smiles_data  observed_value
0  CC(C)=NOCCC(=O)N1CCC(CC(=O)N2CCC([C@H]3c4ncc(Br)cc4CCc4cc(Cl)cc(Br)c43)CC2)CC1    7.50 to 8.70
1  O=C(CC1CCN(C(=O)CN2C(=O)CSC2=O)CC1)N1CCC([C@H]2c3ncc(Br)cc3CCc3cc(Cl)cc(Br)c32)CC1    7.50 to 8.70
2  CN(C)CCCC(=O)N1CCC(CC(=O)N2CCC([C@H]3c4ncc(Br)cc4CCc4cc(Cl)cc(Br)c43)CC2)CC1    7.50 to 8.70

###

Measured pIC50, listed per entry.
TEST_TARGET: farnesyl protein transferase (Homo sapiens, UniProt P49354+P49356)
MEASUREMENT_NOTES: FPT IC50, inhibition of farnesyl protein transferase, in vitro enzyme assay (procedure of WO 95/10516)
Assay type: biochemical
TEST_CONTEXT: k-ras; range stated for the listed group of compounds; read-out: FPT IC50 (k-ras)
pIC50: −log10 of the molar value.
MEASURED_METRIC: pIC50

                                smiles_data  observed_value
0  CC(C)(C)OC(=O)N[C@@H](Cc1c[nH]cn1)C(=O)N1CCC(CC(=O)N2CCC([C@H]3c4ncc(Br)cc4CCc4cc(Cl)cc(Br)c43)CC2)CC1    7.15 to 7.84
1  O=C(CC1CCN(C(=O)[C@@H]2CCCN2)CC1)N1CCC([C@H]2c3ncc(Br)cc3CCc3cc(Cl)cc(Br)c32)CC1    7.15 to 7.84
2  O=C(CC1CCN(C(=O)Cn2cnc3cccnc32)CC1)N1CCC([C@H]2c3ncc(Br)cc3CCc3cc(Cl)cc(Br)c32)CC1    7.15 to 7.84
